Assay: Plasma concentration and urinary excretion of penem in dogs, capsules with glutathione (Example 7)
Assay type: in vivo
Conditions: dog, plasma, po, 75 mg, oral capsule 75 mg (titer), penem:glutathione molar ratio 110:1
measurement label: AUC at 4 h (ng·h/mL)
Report the value in ng·h/mL with no unit label.

response.value for C[C@@H](O)[C@H]1C(=O)N2C(C(=O)O)=C([C@H]3CCCO3)S[C@H]12 [hydrate] (field: AUC at 4 h) = 21900

###

Test: Plasma concentration and urinary excretion of penem in dogs, capsules with glutathione (Example 7)
Type: in vivo
Conditions: dog, plasma, po, 75 mg, oral capsule 75 mg (titer), penem:glutathione molar ratio 1.1:1
measurement label: AUC at 4 h (ng·h/mL)
Respond numerically; units are ng·h/mL and should not be typed.

Form field AUC at 4 h, entry C[C@@H](O)[C@H]1C(=O)N2C(C(=O)O)=C([C@H]3CCCO3)S[C@H]12 [hydrate] : 33700

###

Assay: Plasma concentration of penem in rats, oral penem with oral cilastatin (Example 5)
Type: in vivo, Sprague-Dawley male rats
Conditions: rat, plasma, po, 57.1 mg/kg, oral 57.1 mg (titer)/Kg, cilastatin 7.17 mg/Kg oral
measurement label: AUC at 1.5 h (ng·h/mL)
Number only, in ng·h/mL; omit the unit.

The value of AUC at 1.5 h measured for the compound C[C@@H](O)[C@H]1C(=O)N2C(C(=O)O)=C([C@H]3CCCO3)S[C@H]12 [hydrate] turned out to be 19600

###

Assay: in vivo
Set-up: species or system Sprague-Dawley male rats
Details: rat, plasma, iv, 11.4 mg/kg, intravenous penem 11.4 mg (titer)/Kg, cilastatin 7.17 mg/Kg oral
Description: The blood was collected during the period of from 0.1 to 1.5 hours after the administration. The concentrations of the free acid of the penem in plasma samples were measured by high performance liquid chromatography (HPLC) to determine the area under the plasma concentration:time curve (AUC).
measurement label: AUC at 1.5 h

Measured AUC at 1.5 h of C[C@@H](O)[C@H]1C(=O)N2C(C(=O)O)=C([C@H]3CCCO3)S[C@H]12 [hydrate] : 6740 ng·h/mL

###

Assay: Plasma concentration and urinary excretion of penem in dogs, capsules with glutathione (Example 7)
Format: in vivo
Details: dog, plasma, po, 75 mg, oral, single administration (penem alone), read-out: Highest concentration in plasma
measurement label: Cmax (ng/mL)
Numeric answer only, unit ng/mL assumed.

Reported Cmax for C[C@@H](O)[C@H]1C(=O)N2C(C(=O)O)=C([C@H]3CCCO3)S[C@H]12 [hydrate] was 11600

###

Test: Plasma concentration of penem in rats, oral penem with oral cilastatin (Example 5)
Format: in vivo, Sprague-Dawley male rats
Details: rat, plasma, po, 57.1 mg/kg, oral 57.1 mg (titer)/Kg, cilastatin 0.717 mg/Kg oral
measurement label: AUC at 1.5 h (ng·h/mL)
Respond numerically; units are ng·h/mL and should not be typed.

Record summary for C[C@@H](O)[C@H]1C(=O)N2C(C(=O)O)=C([C@H]3CCCO3)S[C@H]12 [hydrate] : reported AUC at 1.5 h = 21100

###

Assay: Plasma concentration of penem in rats, oral penem with oral N-acetyl-L-cysteine (Example 8)
Assay type: in vivo, Sprague-Dawley male rats
Conditions: rat, 57.1 mg/kg, oral 57.1 mg (titer)/Kg, penem:N-acetyl-L-cysteine molar ratio 0.6:1
measurement label: AUC at 2 h (ng·h/mL)
Expressed in ng·h/mL, but write only the number.

Short answer for C[C@@H](O)[C@H]1C(=O)N2C(C(=O)O)=C([C@H]3CCCO3)S[C@H]12 [hydrate] : AUC at 2 h was 5240

###

Assay: Oral absorption of penem in rats with simultaneous administration of cilastatin (Example 3)
Type: in vivo, Sprague-Dawley male rats
Settings: rat, plasma, po, 57.1 mg/kg, oral 57.1 mg (titer)/Kg, penem:cilastatin molar ratio 600:1, read-out: Highest concentration in plasma
measurement label: Cmax (ng/mL)
Express the result in ng/mL but write the number alone.

// Cmax value for C[C@@H](O)[C@H]1C(=O)N2C(C(=O)O)=C([C@H]3CCCO3)S[C@H]12 [hydrate] : 8080

###

Test: Oral absorption of penem in rats with simultaneous administration of cilastatin (Example 3)
Assay type: in vivo, Sprague-Dawley male rats
Conditions: rat, plasma, po, 57.1 mg/kg, oral 57.1 mg (titer)/Kg, penem:cilastatin molar ratio 2000:1
measurement label: AUC at 2 h (ng·h/mL)
Please state the figure in ng·h/mL; there is no need to write the unit.

Notebook: C[C@@H](O)[C@H]1C(=O)N2C(C(=O)O)=C([C@H]3CCCO3)S[C@H]12 [hydrate] , AUC at 2 h read as 10900

###

Experiment: Plasma concentration of penem in rats, oral penem with oral N-acetyl-L-cysteine (Example 8)
Format: in vivo, Sprague-Dawley male rats
Settings: rat, 57.1 mg/kg, oral 57.1 mg (titer)/Kg, single administration (penem alone)
Protocol: Seven-week-old Sprague-Dawley male rats were orally administered with 57.1 mg (titer)/Kg of sodium (1'R,2"R,5R,6S)-6-(1'-hydroxyethyl)-2-(2"-tetrahydrofuranyl)penem-3-carboxylate 2.5 hydrate. […] The concentrations of the free acid of the penem in plasma samples were measured by high performance liquid chromatography (HPLC) to determine the highest concentration in plasma and the area under the plasma concentration: time curve (AUC).
measurement label: AUC at 2 h (ng·h/mL)
The figure you give is taken to be in ng·h/mL; do not add the unit.

What the record says about C[C@@H](O)[C@H]1C(=O)N2C(C(=O)O)=C([C@H]3CCCO3)S[C@H]12 [hydrate] : AUC at 2 h is 2520

###

Experiment: Plasma concentration and urinary excretion of penem in dogs, capsules with glutathione (Example 7)
Type: in vivo
Conditions: dog, plasma, po, 75 mg, oral capsule 75 mg (titer), penem:glutathione molar ratio 11:1
measurement label: AUC at 4 h (µg·h/mL)
The answer is to be given in µg·h/mL; state only the numeric part.

The reported value for C[C@@H](O)[C@H]1C(=O)N2C(C(=O)O)=C([C@H]3CCCO3)S[C@H]12 [hydrate] in terms of AUC at 4 h is 25.4

###

Assay: Plasma concentration and urinary excretion of penem in dogs, capsules with glutathione (Example 7)
Type: in vivo
Conditions: dog, plasma, po, 75 mg, oral capsule 75 mg (titer), penem:glutathione molar ratio 11:1, read-out: Highest concentration in plasma
measurement label: Cmax (ng/mL)
Your answer should be a plain number; it is taken to be in ng/mL.

Cmax for C[C@@H](O)[C@H]1C(=O)N2C(C(=O)O)=C([C@H]3CCCO3)S[C@H]12 [hydrate] is 18000

###

Assay: Oral absorption of penem in rats with simultaneous administration of cilastatin (Example 3)
Assay type: in vivo, Sprague-Dawley male rats
Conditions: rat, plasma, po, 57.1 mg/kg, oral 57.1 mg (titer)/Kg, penem:cilastatin molar ratio 600:1
measurement label: AUC at 2 h (ng·h/mL)
// return numeric value only (unit: ng·h/mL, not printed)

Measured AUC at 2 h of C[C@@H](O)[C@H]1C(=O)N2C(C(=O)O)=C([C@H]3CCCO3)S[C@H]12 [hydrate] : 14900

###

Test: Oral absorption of penem in rats with simultaneous administration of cilastatin (Example 3)
Type: in vivo, Sprague-Dawley male rats
Details: rat, plasma, po, 57.1 mg/kg, oral 57.1 mg (titer)/Kg, penem:cilastatin molar ratio 10:1, read-out: Highest concentration in plasma
measurement label: Cmax (µg/mL)
Kindly provide the numeric value in µg/mL only, without the unit symbol.

For C[C@@H](O)[C@H]1C(=O)N2C(C(=O)O)=C([C@H]3CCCO3)S[C@H]12 [hydrate] the compound record lists Cmax as 12.7

###

Assay: Oral absorption of penem in rats with simultaneous administration of cilastatin (Example 3)
Type: in vivo, Sprague-Dawley male rats
Conditions: rat, plasma, po, 57.1 mg/kg, oral 57.1 mg (titer)/Kg, penem:cilastatin molar ratio 10:1, vs AUCiv, read-out: Absorption (Oral Absorption Percentage A)
measurement label: bioavailability
Don't forget the unit after the value.

Lab book: bioavailability of C[C@@H](O)[C@H]1C(=O)N2C(C(=O)O)=C([C@H]3CCCO3)S[C@H]12 [hydrate] noted as 86.3%

###

Assay: Plasma concentration of penem in rats, oral penem with oral cilastatin (Example 5)
Assay type: in vivo, Sprague-Dawley male rats
Details: rat, plasma, po, 57.1 mg/kg, oral 57.1 mg (titer)/Kg, cilastatin 7.17 mg/Kg oral, read-out: Highest concentration in plasma
Experimental: Seven-week-old Sprague-Dawley male rats were orally administered with 57.1 mg (titer)/Kg of sodium (1'R,2"R,5R,6S)-6-(1'-hydroxyethyl)-2-(2"-tetrahydrofuranyl)penem-3-carboxylate 2.5 hydrate. […] The concentrations of the free acid of the penem in plasma samples were measured by high performance liquid chromatography (HPLC) to determine the highest concentration in plasma and the area under the plasma concentration:time curve (AUC).
measurement label: Cmax (ng/mL)
Kindly provide the numeric value in ng/mL only, without the unit symbol.

Briefly, Cmax measured for C[C@@H](O)[C@H]1C(=O)N2C(C(=O)O)=C([C@H]3CCCO3)S[C@H]12 [hydrate] : 12700
